SYSTEM UNDER TEST: Proteinase-activated receptor 1 (Homo sapiens)
TEST METHOD NOTES: Antagonist activity at PAR1 in human EAhy926 cells assessed as inhibition of TFLLRN-NH2-induced intracellular calcium mobilization preincubated for 15 mins followed by TFLLRN-NH2 addition by Fluo-4-AM dye based fluorescence assay
Format: functional, cell-based
Active and inactive are the calls of the source. The rule behind the calls is not given here.
Outcomes you can answer with include only these: 1 (yes) (active), 0 (no) (inactive)

Worked cases, answers included:
>  <STRUCTURE STRING>
CC(C)c1cc(-c2ccc(F)cc2)nn2cc(C(=O)N3CCN(C(=O)CCC(=O)NCCCCC(=O)NCCOCCOCCOCCOCCOCCOCCOCCOCCOCCOCCOCCOCCOCCOCCOCCOCCOCCOCCOCCOCCOCCOCCOCCn4cc(CCC(=O)NCC[C@H](NC(=O)[C@H](Cc5ccc(F)c(F)c5)NC(=O)Nc5ccc6c(CN7CCCC7)nn(Cc7c(Cl)cccc7Cl)c6c5)C(=O)NCc5ccccc5)nn4)CC3(C)C)nc12

>  <CLASSIFICATION>
0 (no)

$$$$
>  <STRUCTURE STRING>
CC1(C)CN(C(=O)[C@H]2CC[C@H](C(=O)NCCOCCOCCOCCOCCOCCOCCOCCOCCn3cc(CCC(=O)NCC[C@H](NC(=O)[C@H](Cc4ccc(F)c(F)c4)NC(=O)Nc4ccc5c(CN6CCCC6)nn(Cc6c(Cl)cccc6Cl)c5c4)C(=O)NCc4ccccc4)nn3)CC2)CCN1C(=O)c1cn2nc(-c3ccc(F)cc3)cc(-c3ccc(F)cc3)c2n1

>  <CLASSIFICATION>
1 (yes)

$$$$

So what was the verdict on CC1(C)CN(C(=O)[C@H]2CC[C@H](C(=O)NCCOCCOCCOCCOCCOCCOCCn3cc(CCC(=O)NCC[C@H](NC(=O)[C@H](Cc4ccc(F)c(F)c4)NC(=O)Nc4ccc5c(CN6CCCC6)nn(Cc6c(Cl)cccc6Cl)c5c4)C(=O)NCc4ccccc4)nn3)CC2)CCN1C(=O)c1cn2nc(-c3ccc(F)cc3)cc(-c3ccc(F)cc3)c2n1 in this test?
1 (yes)

Source listed as ChEMBL document CHEMBL4308922.
